src = PubChem BioAssay AID2060347

- Tested on: 817829-284-R-J1-PDC spheroids with HUVEC/MSC, viability
- test-summary: Anticancer human tumor 817829-284-R-J1-PDC patient-derived colon adenocarcinoma cell line growth inhibition [TAK]; active means viability on the fitted dose curve at most 10% of control; inactive means the rest
- condition-notes: second compound 9.49 µM; first compound 0.1 µM
Use one of these outcomes when replying: True for active, False for inactive

Solved cases below.
INSERT INTO results (compound, assigned_label) VALUES
  ('COC1CC2CCC(C)C(O)(O2)C(=O)C(=O)N2CCCCC2C(=O)OC(C(C)CC2CCC(OCCO)C(OC)C2)CC(=O)C(C)C=C(C)C(O)C(OC)C(=O)C(C)CC(C)C=CC=CC=C1C (stereo unspecified) + CC(C)NCC(C(=O)N1CCN(c2ncnc3c2C(C)CC3O)CC1)c1ccc(Cl)cc1', 'False'),
  ('CC(C)CC(NC(=O)CNC(=O)c1cc(Cl)ccc1Cl)B1OC(=O)CC(CC(=O)O)(C(=O)O)O1 (stereo unspecified) + CC(C)NCC(C(=O)N1CCN(c2ncnc3c2C(C)CC3O)CC1)c1ccc(Cl)cc1', 'True'),
  ('CC(C)n1nc(-c2ccc3oc(N)nc3c2)c2c(N)ncnc21 + CC(C)NCC(C(=O)N1CCN(c2ncnc3c2C(C)CC3O)CC1)c1ccc(Cl)cc1', 'True'),
  ('Cc1nc(NC(=O)N2CCCC2C(N)=O)sc1-c1ccnc(C(C)(C)C(F)(F)F)c1 (stereo unspecified) + CC(C)NCC(C(=O)N1CCN(c2ncnc3c2C(C)CC3O)CC1)c1ccc(Cl)cc1', 'True');

Call for entry COc1c(OCCCN2CCOCC2)ccc2c3n(c(=NC(=O)c4cnc(N)nc4)nc12)CCN3 + CC(C)NCC(C(=O)N1CCN(c2ncnc3c2C(C)CC3O)CC1)c1ccc(Cl)cc1 :
True

Call for entry CC(C)(C)c1nc(-c2cccc(NS(=O)(=O)c3c(F)cccc3F)c2F)c(-c2ccnc(N)n2)s1 + CC(C)NCC(C(=O)N1CCN(c2ncnc3c2C(C)CC3O)CC1)c1ccc(Cl)cc1 :
True

----------
- Test system: 817829-284-R-J1-PDC spheroids with HUVEC/MSC, viability
- test-summary: Anticancer human tumor 817829-284-R-J1-PDC cell line growth inhibition [TAK]
- condition-notes: curve of first compound; second compound 9.49 µM
property: IC50

Please give the measured IC50 for this molecule: COc1c(OCCCN2CCOCC2)ccc2c3n(c(=NC(=O)c4cnc(N)nc4)nc12)CCN3 + CC(C)NCC(C(=O)N1CCN(c2ncnc3c2C(C)CC3O)CC1)c1ccc(Cl)cc1
< 3.16 nM

Please give the measured IC50 for this molecule: CC(C)CC(NC(=O)CNC(=O)c1cc(Cl)ccc1Cl)B1OC(=O)CC(CC(=O)O)(C(=O)O)O1 (stereo unspecified) + CC(C)NCC(C(=O)N1CCN(c2ncnc3c2C(C)CC3O)CC1)c1ccc(Cl)cc1
< 0.316 nM

Please give the measured IC50 for this molecule: CCCS(=O)(=O)Nc1ccc(F)c(C(=O)c2c[nH]c3ncc(-c4ccc(Cl)cc4)cc23)c1F + CC(C)NCC(C(=O)N1CCN(c2ncnc3c2C(C)CC3O)CC1)c1ccc(Cl)cc1
< 316 nM

Please give the measured IC50 for this molecule: CC(C)CC(NC(=O)C(Cc1ccccc1)NC(=O)c1cnccn1)B(O)O (stereo unspecified) + CC(C)NCC(C(=O)N1CCN(c2ncnc3c2C(C)CC3O)CC1)c1ccc(Cl)cc1
< 0.0316 nM

Please give the measured IC50 for this molecule: CC(C)n1nc(-c2ccc3oc(N)nc3c2)c2c(N)ncnc21 + CC(C)NCC(C(=O)N1CCN(c2ncnc3c2C(C)CC3O)CC1)c1ccc(Cl)cc1
< 0.316 nM

Please give the measured IC50 for this molecule: CC(=O)Nc1cccc(-n2c(=O)n(C3CC3)c(=O)c3c(Nc4ccc(I)cc4F)n(C)c(=O)c(C)c32)c1 + CC(C)NCC(C(=O)N1CCN(c2ncnc3c2C(C)CC3O)CC1)c1ccc(Cl)cc1
< 0.0949 nM

----------
- Tested on: 817829-284-R-J1-PDC spheroids with HUVEC/MSC, viability
- test-summary: Anticancer human tumor 817829-284-R-J1-PDC cell line growth inhibition [TAK]
- condition-notes: curve of first compound; second compound 9.49 µM
pIC50: −log10 of the molar value.
Measured pIC50 accompanies every entry in the list below.

Past entries and their recorded results:
INSERT INTO results (compound, result_value) VALUES
  ('CC(C)(C)c1nc(-c2cccc(NS(=O)(=O)c3c(F)cccc3F)c2F)c(-c2ccnc(N)n2)s1 + CC(C)NCC(C(=O)N1CCN(c2ncnc3c2C(C)CC3O)CC1)c1ccc(Cl)cc1', '> 7.50'),
  ('Cn1cnc2c(F)c(Nc3ccc(Br)cc3Cl)c(C(=O)NOCCO)cc21 + CC(C)NCC(C(=O)N1CCN(c2ncnc3c2C(C)CC3O)CC1)c1ccc(Cl)cc1', '> 8.02'),
  ('COC1CC2CCC(C)C(O)(O2)C(=O)C(=O)N2CCCCC2C(=O)OC(C(C)CC2CCC(OCCO)C(OC)C2)CC(=O)C(C)C=C(C)C(O)C(OC)C(=O)C(C)CC(C)C=CC=CC=C1C (centres undefined) + CC(C)NCC(C(=O)N1CCN(c2ncnc3c2C(C)CC3O)CC1)c1ccc(Cl)cc1', '> 9.50');

Turning now to a further compound:
Please give the measured pIC50 for this compound: Cc1nc(NC(=O)N2CCCC2C(N)=O)sc1-c1ccnc(C(C)(C)C(F)(F)F)c1 (centres undefined) + CC(C)NCC(C(=O)N1CCN(c2ncnc3c2C(C)CC3O)CC1)c1ccc(Cl)cc1
> 7.50

----------
- Tested on: 817829-284-R-J1-PDC spheroids with HUVEC/MSC, viability
- test-summary: Anticancer human tumor 817829-284-R-J1-PDC cell line growth inhibition [TAK]
- condition-notes: second compound 3 µM; first compound 0.001 µM; stronger effect = lower value
Measured viability, T/C accompanies every entry in the list below.
Expressed in %, but write only the number.

Past entries and their recorded results:
INSERT INTO measurements (molecule, tested_system, property, unit_info, result_value) VALUES
  ('CC(C)CC(NC(=O)C(Cc1ccccc1)NC(=O)c1cnccn1)B(O)O (centres undefined) + CC(C)NCC(C(=O)N1CCN(c2ncnc3c2C(C)CC3O)CC1)c1ccc(Cl)cc1', '817829-284-R-J1-PDC spheroids with HUVEC/MSC, viability', 'viability, T/C', '%', 22.3),
  ('CC(C)CC(NC(=O)CNC(=O)c1cc(Cl)ccc1Cl)B1OC(=O)CC(CC(=O)O)(C(=O)O)O1 (centres undefined) + CC(C)NCC(C(=O)N1CCN(c2ncnc3c2C(C)CC3O)CC1)c1ccc(Cl)cc1', '817829-284-R-J1-PDC spheroids with HUVEC/MSC, viability', 'viability, T/C', '%', 10),
  ('COC1CC2CCC(C)C(O)(O2)C(=O)C(=O)N2CCCCC2C(=O)OC(C(C)CC2CCC(OCCO)C(OC)C2)CC(=O)C(C)C=C(C)C(O)C(OC)C(=O)C(C)CC(C)C=CC=CC=C1C (centres undefined) + CC(C)NCC(C(=O)N1CCN(c2ncnc3c2C(C)CC3O)CC1)c1ccc(Cl)cc1', '817829-284-R-J1-PDC spheroids with HUVEC/MSC, viability', 'viability, T/C', '%', 19.9);

Turning now to a further molecule:
Please give the measured viability, T/C for this molecule: CC(C)n1nc(-c2ccc3oc(N)nc3c2)c2c(N)ncnc21 + CC(C)NCC(C(=O)N1CCN(c2ncnc3c2C(C)CC3O)CC1)c1ccc(Cl)cc1
22.1

----------
- Test system: 817829-284-R-J1-PDC spheroids with HUVEC/MSC, viability
- test-summary: Anticancer human tumor 817829-284-R-J1-PDC cell line growth inhibition [TAK]
- condition-notes: second compound 0.3 µM; first compound 0.00316 µM; stronger effect = lower value
- Description: Combinatorial screen of targeted agents with TAK-243 and ipatasertib in multi-cell type tumor spheroids […] Compounds. […] If the clinical Cmax for an agent had not been determined, the highest concentration tested was 10 microM. NCI60 Cell Culture. […] The optimal seeding densities for each of the cell lines at each time point assessed were determined prior to performing the concentration response studies. […]
So basically: is viability, T/C under 80%? Then condition met. Not under? Then condition not met.

INSERT INTO assay_data (compound, tested_system, assigned_label) VALUES
  ('CC(C)CC(NC(=O)CNC(=O)c1cc(Cl)ccc1Cl)B1OC(=O)CC(CC(=O)O)(C(=O)O)O1 (stereo not given) + CC(C)NCC(C(=O)N1CCN(c2ncnc3c2C(C)CC3O)CC1)c1ccc(Cl)cc1', '817829-284-R-J1-PDC spheroids with HUVEC/MSC, viability', 'condition not met'),
  ('COC1CC2CCC(C)C(O)(O2)C(=O)C(=O)N2CCCCC2C(=O)OC(C(C)CC2CCC(OCCO)C(OC)C2)CC(=O)C(C)C=C(C)C(O)C(OC)C(=O)C(C)CC(C)C=CC=CC=C1C (stereo not given) + CC(C)NCC(C(=O)N1CCN(c2ncnc3c2C(C)CC3O)CC1)c1ccc(Cl)cc1', '817829-284-R-J1-PDC spheroids with HUVEC/MSC, viability', 'condition met');

Here is another compound to look at.
Strictly below 80% in viability, T/C? COc1c(OCCCN2CCOCC2)ccc2c3n(c(=NC(=O)c4cnc(N)nc4)nc12)CCN3 + CC(C)NCC(C(=O)N1CCN(c2ncnc3c2C(C)CC3O)CC1)c1ccc(Cl)cc1
condition met
